# SUBJECT OF TEST: human CLDN18.2 (human)
# PROTOCOL DESCRIPTION: cell-based or functional assay
Kindly state CDC EC50, KATOIII target cells for each of the entries shown.
One number for each entry, in nM.

Recorded results for 2 binders are shown here.
>>> result_number("chimeric antibody xi28G3 (antibody, human IgG1, kappa, V domains shown, Mouse variable regions on human IgG1/kappa; defucosylated, expressed in FUT8-knockout CHO-S cells; also called chimeric 28G3) VH: EIQLQQTGPELVKPGASVTISCKTSGYSFTDYLMLWVKQSHGKSLEWIGNINPYYGRTTYNLKFKGKATLTVDRSSSTAYMQLNSLTSEDSAVYYCARDGYSLRNAMDYWGQGTSVTVSS VL: DIVMTQSPYSLSVSTGEKVTMSCKSSQSLFNSGNQKNYLAWYQQKPGQPPKLLIYGASTRESGVPDRFTGSGSGTDFTLTISSVQAEDLALYYCQNAHSYPYTFGGGTKLEIKR")
0.112
>>> result_number("IMAB362 (antibody, human IgG1, kappa, V domains shown, Positive control, prepared in-house; also called Claudiximab; TMAB362 [sic]) VH: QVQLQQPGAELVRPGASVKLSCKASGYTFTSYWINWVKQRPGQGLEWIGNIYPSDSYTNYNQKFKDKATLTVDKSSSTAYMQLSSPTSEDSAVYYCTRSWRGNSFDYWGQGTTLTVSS VL: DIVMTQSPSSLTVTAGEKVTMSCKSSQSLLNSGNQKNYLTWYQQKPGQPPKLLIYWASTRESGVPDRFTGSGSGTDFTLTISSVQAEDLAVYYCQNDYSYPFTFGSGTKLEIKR")
12.8

Proceeding to the next binder to report its CDC EC50, KATOIII target cells.
Give the measured CDC EC50, KATOIII target cells of chimeric antibody xi22F12 (antibody, human IgG1, kappa, V domains shown, Mouse variable regions on human IgG1/kappa; defucosylated, expressed in FUT8-knockout CHO-S cells; also called chimeric 22F12) VH: QVQLKESGPGLVAPSQSLSITCTVSGFSLTSYGVYWVRQPPGKGLEWLGVIWAGGSTNYNSALMSRLSINKDNSKSQVFLKMNSLQTDDTAMYYCARDRGRLLSMDYWGQGTSVTVSS VL: DIVMTQSPSSLSVSAGEKVTMSCRSSQSLLNSGNQKNYLAWYQQKPGQPPKLLIYGASTRESGVPDRFTGSGSGTDFTLTIGSVQAEDLAVYYCQNVHFFPFTFGSGTKLEIKR .
0.103
